All values here come from the supplement of paper PMC10126150.

- Tested on: ATP;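 further: ATP exposure 15 min at 22 °C before imaging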
- method_summary: switch fluorescence ratio, 500 uM ATP over buffer (Cy3 cluster intensity, sum of 5 cycles each) (fold (ratio)); higher = stronger signal-on switching upon ATP binding; sequences stand for … in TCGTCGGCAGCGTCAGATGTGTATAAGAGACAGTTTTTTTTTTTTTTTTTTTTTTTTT…TC
- experimental_conditions: aptamer strand: ATP DNA aptamer (quencher-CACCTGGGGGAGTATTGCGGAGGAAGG + anchor), 100 nM annealed; ATP concentration: 500 uM
In this section we review reported switch fluorescence ratio values for a set of sequences.
property: switch fluorescence ratio

record_sequence | property | reported_measurement
GTTTGAATAT | switch fluorescence ratio | 0.984
CGGGGCTTTG | switch fluorescence ratio | 0.982
ATCAGCGTTT | switch fluorescence ratio | 1.01
TTCGGAATTG | switch fluorescence ratio | 1.04
AGTGGCAGTG | switch fluorescence ratio | 1
CGAAATCGTG | switch fluorescence ratio | 0.996
TGAATAGAGG | switch fluorescence ratio | 1.01
GGGGAGGTGT | switch fluorescence ratio | 1.05
ACAGATAAAG | switch fluorescence ratio | 0.97
TTTTCTAGGG | switch fluorescence ratio | 1.01
TACGGAGATT | switch fluorescence ratio | 1.01
TACAAGTCGT | switch fluorescence ratio | 0.98
CCATAGTTTG | switch fluorescence ratio | 0.993
TATATTAAAG | switch fluorescence ratio | 0.976
ACATAGGAAC | switch fluorescence ratio | 1.02
TAAGCTCGTG | switch fluorescence ratio | 0.97
TTGGTGCATG | switch fluorescence ratio | 1.01
CGATCCTTTT | switch fluorescence ratio | 1.05
AGGTTGGATC | switch fluorescence ratio | 0.995
CGCTGAGATC | switch fluorescence ratio | 1.02
TTTAGGTAT | switch fluorescence ratio | 1
TTCTAAAAAA | switch fluorescence ratio | 1.01
TCCTGCGCGT | switch fluorescence ratio | 4.52
CATGGGAAGT | switch fluorescence ratio | 1.01
CATTTGGTCG | switch fluorescence ratio | 0.955
GCTGGCTCGT | switch fluorescence ratio | 1.01
GGGGCGGCCC | switch fluorescence ratio | 1.03
AAAGAAGACG | switch fluorescence ratio | 1.03
TGCCGGGGAC | switch fluorescence ratio | 1.04
TCTAATTCCT | switch fluorescence ratio | 1.06
GGGGAGGGAA | switch fluorescence ratio | 1.01
CGGGGTAGCG | switch fluorescence ratio | 0.965
GATAATGGGT | switch fluorescence ratio | 0.976
ATAATCATTT | switch fluorescence ratio | 1.02
TTATTTTTAT | switch fluorescence ratio | 0.998
GAGGATGGTT | switch fluorescence ratio | 0.964
ATGTGGACAA | switch fluorescence ratio | 1.02
GGGAACGTTT | switch fluorescence ratio | 0.993
CAAGTGCAGA | switch fluorescence ratio | 1.05
AAACTTTAGT | switch fluorescence ratio | 0.987
ATATATTTGT | switch fluorescence ratio | 1.01
TTGCATTTAA | switch fluorescence ratio | 1
ATGTGACGCA | switch fluorescence ratio | 1.13
GTAAGAAGTG | switch fluorescence ratio | 0.941
GGGGTCCGTG | switch fluorescence ratio | 0.993
TTTTGTAGGG | switch fluorescence ratio | 0.969
ATTTTAGTTA | switch fluorescence ratio | 1
GAAGGCATTT | switch fluorescence ratio | 1.16
AAAAAAGACG | switch fluorescence ratio | 1.05
GAACTTAAAA | switch fluorescence ratio | 1.02
AAGGACAAGA | switch fluorescence ratio | 1.02
TTTTTTGTAG | switch fluorescence ratio | 1.01
TGAGAACGCA | switch fluorescence ratio | 1.2
CATTATAGAT | switch fluorescence ratio | 0.997
CCAAGAGGAC | switch fluorescence ratio | 1
TATTTGAGTT | switch fluorescence ratio | 0.965
TGCCGTTTTC | switch fluorescence ratio | 1.04
CTCTGTTGTG | switch fluorescence ratio | 0.961
AGATAAAACG | switch fluorescence ratio | 1.02
GCCTGTTTGG | switch fluorescence ratio | 1.01
GGGACTATTT | switch fluorescence ratio | 1.01
TTCAACGACG | switch fluorescence ratio | 0.988
AAAGCCGCTG | switch fluorescence ratio | 1.02
CATTATACAT | switch fluorescence ratio | 1.01
ATAGGTTTTA | switch fluorescence ratio | 0.976
CGGTTGTTGA | switch fluorescence ratio | 1.01
TGGTTAAGGG | switch fluorescence ratio | 1
AATATCTGTT | switch fluorescence ratio | 0.997
GGTTTGCAGC | switch fluorescence ratio | 0.975
ATATGAAAGT | switch fluorescence ratio | 0.977
CGAATTACGT | switch fluorescence ratio | 0.992
GAGTGTGTTC | switch fluorescence ratio | 1.01
GAATGTAGTC | switch fluorescence ratio | 1.01
CAGACGGGTC | switch fluorescence ratio | 1
TGTTTGTGGC | switch fluorescence ratio | 1.12
AAAATAAATG | switch fluorescence ratio | 1.01
AACGTTGGGG | switch fluorescence ratio | 0.967
AAAATACCTA | switch fluorescence ratio | 1.15
GTTGTCCATA | switch fluorescence ratio | 1.02
TCGATTAATT | switch fluorescence ratio | 1.1
TGAGGATATA | switch fluorescence ratio | 0.989
